Provide the reported Population Fragmented Nuclei (%) of each item.
tested on: U2OS; assay: Multiplex assay against U2OS; type: toxicity, cell-based; conditions: human, 48 h, 10 µM, compound concentration 10 uM, replicate 1
Give bare numbers, in %.

{"Compound": "Oc1c(CN2CCN(c3ccccn3)CC2)cc(Cl)c2cccnc12", "Assay Endpoint": "Population Fragmented Nuclei (%)", "Result Unit": "%", "Data Value": 32}

Hey, quick one: what's Population Fragmented Nuclei (%) for each of these?
1. CNC[C@H](O)c1ccc(O)c(O)c1 [EPINEPHRINE]
2. CN(C)c1ccnc2sc3c(=O)n(N4CCCCCC4)cnc3c12
3. CC[C@H]1OC(=O)[C@H](C)[C@@H](O[C@H]2C[C@@](C)(OC)[C@@H](O)[C@H](C)O2)[C@H](C)[C@@H](O[C@@H]2O[C@H](C)C[C@H](N(C)C)[C@H]2O)[C@@]2(C)CC(C)=C(O2)[C@H](C)[C@@H](O)[C@]1(C)O
4. N#Cc1c(N)nc(SCc2csc(-c3ccc(Cl)cc3)n2)c(C#N)c1-c1ccc(OCCO)cc1 [CAPADENOSON]
5. CCCN1CCC[C@@H]2Cc3n[nH]cc3C[C@H]21.Cl [QUINPIROLE HYDROCHLORIDE]

Reply:
1: 41; 2: 28; 3: 37; 4: 44; 5: 11

Hey, quick one: what's Population Fragmented Nuclei (%) for each of these?
1. CN1CCN2c3ncccc3Cc3ccccc3C2C1 (stereo unspecified) [MIRTAZAPINE]
2. Cc1ccccc1C(=O)Nc1ccc(C(=O)N2CCCC(N(C)C)c3ccccc32)cc1.Cl (stereo unspecified)
3. CN(C)CCCc1cc(C(=O)Nc2ccc(-c3ccncc3)cc2)ccc1O.Cl.Cl
4. Cc1ccc(F)cc1C(=O)Nc1ccc(C(=O)N2Cc3cccn3Cc3ccccc32)c(Cl)c1 [LIXIVAPTAN]
5. c1cc(OCCCN2CCCCC2)ccc1CN1CCCCC1 [JNJ-5207852]

Reply:
1. 15
2. 28
3. 25
4. 32
5. 22

Hey, quick one: what's Population Fragmented Nuclei (%) for each of these?
1. Cl.Clc1ccc2nsnc2c1NC1=NCCN1 [TIZANIDINE HYDROCHLORIDE]
2. C[C@H]1[C@H]2CC[C@H]3[C@@H]4CC=C5C[C@@H](N(C)C)CC[C@]5(C)[C@H]4CC[C@]23CN1C [CONESSINE]
3. CC(C)(C)c1ccc(S(=O)(=O)Nc2ccc(Cl)cc2C(=O)c2cc[n+]([O-])cc2)cc1 [VERCIRNON]
4. O=C(NCC(=O)N1CC[C@H](N[C@H]2CC[C@@](O)(c3ccc(-c4ncccn4)cn3)CC2)C1)c1cccc(C(F)(F)F)c1 [PF-4136309]
5. COc1c(C)cc(NC(=O)c2nn(Cc3ccc(F)cc3)c3c2CN(C(=O)c2ccc[nH]2)C[C@]3(C)C(N)=O)cc1C

Reply:
1. 18
2. 19
3. 18
4. 22
5. 31

====

tested on: Fibroblast; assay: Multiplex assay against human fibroblast; type: toxicity, cell-based; conditions: 12 h, 1 µM, compound concentration 1 uM, replicate 2
# if value of Population Mitotic Cells (%) reaches 60%, tag 1.0; if it stays below, tag 0.0

Please review the entries below; each comes with its answer.
{"Compound": "CSc1ccccc1N1CCN(CCCCCC(=O)NC2CCCc3ccccc32)CC1.Cl (stereo unspecified)", "Cat": 0.0}
{"Compound": "O=C(NCC(=O)N1CC[C@H](N[C@H]2CC[C@@](O)(c3ccc(-c4ncccn4)cn3)CC2)C1)c1cccc(C(F)(F)F)c1", "Cat": 1.0}
{"Compound": "CCCn1c(=O)c2[nH]c(C3CCCC3)nc2n(CCC)c1=O", "Cat": 1.0}
{"Compound": "COc1c(C)cc(NC(=O)c2nn(Cc3ccc(F)cc3)c3c2CN(C(=O)c2ccc[nH]2)C[C@]3(C)C(N)=O)cc1C", "Cat": 0.0}
{"Compound": "CN1CCN2c3ncccc3Cc3ccccc3C2C1 (stereo unspecified)", "Cat": 1.0}

Task item: # check: Population Mitotic Cells (%) of Cc1ccc(C(C)(O)c2nc3ccccc3s2)c(C)c1 (stereo unspecified) is greater than or equal to 60%
Reply: 0.0

Task item: Also COc1cc(NC(=O)CCN2CCC(OC(=O)Nc3ccccc3-c3ccccc3)CC2)c(Cl)cc1CNC[C@H](O)c1ccc(O)c2[nH]c(=O)ccc12 ?
Reply: 1.0

Task item: Also O=C1COc2nccc(-c3ccccc3F)c2CN1Cc1cc(C(F)(F)F)cc(C(F)(F)F)c1 ?
Reply: 1.0

Task item: Also O=C(O)Cc1ccccc1Nc1c(Cl)cccc1Cl ?
Reply: 1.0

Task item: Also Cc1ccccc1C(=O)Nc1ccc(C(=O)N2CCCC(N(C)C)c3ccccc32)cc1.Cl (stereo unspecified) ?
Reply: 1.0

Task item: Also Cc1ccc(/C(=C\CN2CCCC2)c2ccccn2)cc1 ?
Reply: 0.0

Task item: Also O=S(=O)(c1ccccc1)c1cnc2c(N3CCNCC3)cccc2c1 [INTEPIRDINE] ?
Reply: 1.0

Task item: Also Cc1ccc(F)cc1C(=O)Nc1ccc(C(=O)N2Cc3cccn3Cc3ccccc32)c(Cl)c1 ?
Reply: 0.0

Task item: Also CC1(COc2ccc3c(c2)ncn3-c2ccc3cccc(N4CCC(N)CC4)c3n2)COC1 ?
Reply: 1.0

Task item: Also CCNC1(C(N)=O)CCN(c2ncnc3c2nc(-c2ccccc2Cl)n3-c2ccc(Cl)cc2)CC1 ?
Reply: 1.0

====

system: HEK-293T; assay: Multiplex assay against HEK293T; type: toxicity, cell-based; settings: human, 48 h, 1 µM, compound concentration 1 uM, replicate 1
Assay Endpoint: Population Normal (%)
Numbers only, in %.

Take a look at these entries with their results.
{"Molecule": "CN(C)CCCc1cc(C(=O)Nc2ccc(-c3ccncc3)cc2)ccc1O.Cl.Cl", "Data Value": 97}
{"Molecule": "c1cc(OCCCN2CCCCC2)ccc1CN1CCCCC1", "Data Value": 97}
{"Molecule": "O=C(NCCO)c1cccc(-c2cc(Nc3ccc(OC(F)(F)F)cc3)ncn2)c1", "Data Value": 96}

Hey, quick one: what's Population Normal (%) for each of these?
1. Cc1ccc(-c2ccc(F)cc2COc2ccc(CCC(=O)O)cc2)cc1
2. Cl.Clc1ccc2nsnc2c1NC1=NCCN1 [TIZANIDINE HYDROCHLORIDE]

Reply:
[98, 97]

====

Provide the reported Population Pyknosed Nuclei (%) of each item.
system: HEK-293T; experiment: Multiplex assay against HEK293T; format: toxicity, cell-based; settings: human, 24 h, 1 µM, compound concentration 1 uM, replicate 2
Answers are plain numbers, in %.

Take a look at these entries with their results.
{"Molecule": "CNC[C@H](O)c1ccc(O)c(O)c1 [EPINEPHRINE]", "Population Pyknosed Nuclei (%)": 10}
{"Molecule": "O=C(NCC(=O)N1CC[C@H](N[C@H]2CC[C@@](O)(c3ccc(-c4ncccn4)cn3)CC2)C1)c1cccc(C(F)(F)F)c1", "Population Pyknosed Nuclei (%)": 11}
{"Molecule": "C[C@@H]1C[C@H]2[C@@H]3CCC4=CC(=O)C=C[C@]4(C)[C@@]3(F)[C@@H](O)C[C@]2(C)[C@@]1(O)C(=O)CO", "Population Pyknosed Nuclei (%)": 8}
{"Molecule": "CC(=O)NCCc1c(Cc2ccccc2)[nH]c2ccccc12", "Population Pyknosed Nuclei (%)": 10}

Hey, quick one: what's Population Pyknosed Nuclei (%) for each of these?
1. N#Cc1c(N)nc(SCc2csc(-c3ccc(Cl)cc3)n2)c(C#N)c1-c1ccc(OCCO)cc1
2. COc1cc(C(=O)N(CCCc2ccccc2)Cc2ccc(CC(=O)O)cc2)cc(OC)c1C

Reply:
12
9

Hey, quick one: what's Population Pyknosed Nuclei (%) for each of these?
1. O=C(O)c1cc2ccccc2c(Cc2c(O)c(C(=O)O)cc3ccccc23)c1O
2. Cc1ccc(-c2ccc(F)cc2COc2ccc(CCC(=O)O)cc2)cc1

Reply:
[7, 9]

====

system: U2OS; assay: Multiplex assay against U2OS; type: toxicity, cell-based; settings: human, 48 h, 1 µM, compound concentration 1 uM, replicate 2
Assay Endpoint: Population Normal (%)
One number for each entry, in %.

{"Compound": "O=C(O)Cc1ccccc1Nc1c(Cl)cccc1Cl", "Population Normal (%)": 96}

Hey, quick one: what's Population Normal (%) for each of these?
1. CCCN1CCC[C@@H]2Cc3n[nH]cc3C[C@H]21.Cl [QUINPIROLE HYDROCHLORIDE]
2. Cc1nc2ccc(Oc3ccc(F)cc3)cc2c(=O)n1C[C@H]1CCCN(C(C)C)C1.Cl
3. Cc1ccc(/C(=C\CN2CCCC2)c2ccccn2)cc1
4. C[C@@H]1C[C@H]2[C@@H]3CCC4=CC(=O)C=C[C@]4(C)[C@@]3(F)[C@@H](O)C[C@]2(C)[C@@]1(O)C(=O)CO
5. COc1ccc2c(c1)C(C(=O)N(Cc1ccc(N(C)C)cc1)c1ccc(C(C)C)cc1)CCC2.Cl (stereo not drawn)

Reply:
[96, 99, 96, 97, 96]

Hey, quick one: what's Population Normal (%) for each of these?
1. COc1c(C)cc(NC(=O)c2nn(Cc3ccc(F)cc3)c3c2CN(C(=O)c2ccc[nH]2)C[C@]3(C)C(N)=O)cc1C
2. COc1cc(C(=O)N(CCCc2ccccc2)Cc2ccc(CC(=O)O)cc2)cc(OC)c1C

Reply:
1. 94
2. 93
